Hey, just so you know, these numbers are from patent US20110184029A1.

Test: Cytotoxicity assessment in uninfected MT-2 / MT-4 cells
Format: cell-based
Conditions: human, MT-2 or MT-4 cells not given
Method: For compound cytotoxicity assessment in MT-2 cells, the protocol was identical to that of the antiviral assay in MT-2 cells, except that uninfected cells and a 3-fold serial dilution of compounds were used. For cytotoxicity assessment in MT-4 cells, the protocol is identical to that of the antiviral assay in MT-4 cells, except that no virus was added. Cytotoxicity is expressed as CC50.
ASSAY_READOUT: CC50 at 5 days

molecule=Cc1cc(C#N)cc(S(=O)(=O)c2c(CC3CC3)c(C)[nH]c(=O)c2C(C)C)c1 assay_readout="CC50 at 5 days" result="> 69 µM"
molecule="Cc1[nH]c(=O)c(C(C)C)c([S+]([O-])c2cc(C#N)cc(C#N)c2)c1CC1CC1 (centres unmarked)" assay_readout="CC50 at 5 days" result="> 100 µM"
